experiment: volume resistivity; format: physicochemical; settings: 23° C., 50% relative humidity
Counter-ions that a name gives are not always drawn.
Quick reference: volume resistivity of the listed items.
reported-endpoint: volume resistivity

C1CNCCN1.O=S(=O)(O)O [Piperazine sulfate]    9.35×10^7 .OMEGA.-cm
C1CCNCC1.O=S(=O)(O)O [piperidine sulfate]    3.54×10^7 .OMEGA.-cm
NCCN [Ethylenediamine sulfate]    2.74×10^8 .OMEGA.-cm
N=C(N)N [Guanidine sulfate]    6.69×10^7 .OMEGA.-cm
C1N2CN3CN1CN(C2)C3 [Hexamethylene-tetraamine succinate]    2.05×10^11 .OMEGA.-cm
